System: mouse organs
ASSAY METHOD TEXT: In vivo activity screening in mice: organ mean total flux (p/s) of luciferase activity after injection of F2 LNP pools (Table 6, FIG. 7A-7C)
CONDITION DETAILS: Mouse 3, dose 1.0 mg/kg, luciferase mRNA
Marks after values point to notes of the source that are not given here.
Kindly supply the reported Organ Mean Total Flux Heart values for the records listed here.

Give the reported Organ Mean Total Flux Heart for this molecule. CCCCC/C=C\C/C=C\CCCCCCCCC(CCCCCCCC/C=C\C/C=C\CCCCC)OC(=O)CCCN(C)C [MC3, reference compound]
8.5 p/s (×10^6)

Give the reported Organ Mean Total Flux Heart for this molecule. CCCCCCC(CCCC)COC(=O)CCCCCC(=O)OCC(COC(=O)CCCCCC(=O)OCC(CCCC)CCCCCC)(COC(=O)CCCCCC(=O)OCC(CCCC)CCCCCC)COC(=O)CCC(CCCCCC)OC(=O)NCCN1CCCC1 (stereo not drawn) [Compound 51]
16.0 p/s (×10^6)

Give the reported Organ Mean Total Flux Heart for this molecule. CCCCCCCCCOC(=O)CCCCC(=O)OCC(COC(=O)CCCCC(=O)OCCCCCCCCC)(COC(=O)CCCCC(=O)OCCCCCCCCC)COC(=O)CCC(CCCCCC)OC(=O)NCCN1CCCC1 (stereo not drawn) [Compound 50]
3.1 p/s (×10^6)

Give the reported Organ Mean Total Flux Heart for this molecule. CCCCCCC(CCC(=O)OCC(COC(=O)CCCCCCOC(=O)C(CCCC)CCCCCC)(COC(=O)CCCCCCOC(=O)C(CCCC)CCCCCC)COC(=O)CC12CC3CC(CC(C3)C1)C2)OC(=O)NCCN1CCCC1 (stereo not drawn) [Compound 57]
16.1 p/s (×10^6)

Give the reported Organ Mean Total Flux Heart for this molecule. CCCCCCC(CCC(=O)OCC(COC(=O)CCCCCOC(=O)C(CCCC)CCCCCC)(COC(=O)CCCCCOC(=O)C(CCCC)CCCCCC)COC(=O)CCCCCOC(=O)C(CCCC)CCCCCC)OC(=O)NCCN1CCCC1 (stereo not drawn) [Compound 55]
4.4 p/s (×10^6)

Give the reported Organ Mean Total Flux Heart for this molecule. CCCCCCC(CCC(=O)OCC(COC(=O)CCCCCC(=O)OCCC(CCCCC)CCCCC)(COC(=O)CCCCCC(=O)OCCC(CCCCC)CCCCC)COC(=O)CCCCCC(=O)OCCC(CCCCC)CCCCC)OC(=O)NCCN1CCCC1 (stereo not drawn) [Compound 52]
9.0 p/s (×10^6)
